Record type: pKi measurement. Applies to: Human PDE9 (PDE9A2) (Homo sapiens (Human), UniProt O76083)
One number for each entry, as −log10 of the molar value.

molecule	measured.on	pKi
C[C@@H](c1ccc(C(F)(F)F)nc1)n1nc(C#N)c2c(=O)[nH]c(C3CCC3n3cccn3)nc21 (single isomer, unassigned) [Example 37]	Human PDE9 (PDE9A2) (Homo sapiens (Human), UniProt O76083)	6.91
CC(c1ccc(C(F)(F)F)nc1)n1nc(C#N)c2c(=O)[nH]c(C3CCC3n3cc(C(F)F)cn3)nc21 (stereo not drawn) [Example 45]	Human PDE9 (PDE9A2) (Homo sapiens (Human), UniProt O76083)	6.94

So, C[C@@H](c1ccc(C(F)(F)F)nc1)n1nc(C#N)c2c(=O)[nH]c(C3CCC3n3cccn3)nc21 (single isomer, unassigned) [Example 36] ? Its pKi was 6.83
